Data origin: ChEMBL document CHEMBL4145625

Molecular target: Phosphatidylinositol 4,5-bisphosphate 3-kinase catalytic subunit alpha isoform (Homo sapiens, UniProt P42336)
Sequence (P42336 whole entry, canonical isoform): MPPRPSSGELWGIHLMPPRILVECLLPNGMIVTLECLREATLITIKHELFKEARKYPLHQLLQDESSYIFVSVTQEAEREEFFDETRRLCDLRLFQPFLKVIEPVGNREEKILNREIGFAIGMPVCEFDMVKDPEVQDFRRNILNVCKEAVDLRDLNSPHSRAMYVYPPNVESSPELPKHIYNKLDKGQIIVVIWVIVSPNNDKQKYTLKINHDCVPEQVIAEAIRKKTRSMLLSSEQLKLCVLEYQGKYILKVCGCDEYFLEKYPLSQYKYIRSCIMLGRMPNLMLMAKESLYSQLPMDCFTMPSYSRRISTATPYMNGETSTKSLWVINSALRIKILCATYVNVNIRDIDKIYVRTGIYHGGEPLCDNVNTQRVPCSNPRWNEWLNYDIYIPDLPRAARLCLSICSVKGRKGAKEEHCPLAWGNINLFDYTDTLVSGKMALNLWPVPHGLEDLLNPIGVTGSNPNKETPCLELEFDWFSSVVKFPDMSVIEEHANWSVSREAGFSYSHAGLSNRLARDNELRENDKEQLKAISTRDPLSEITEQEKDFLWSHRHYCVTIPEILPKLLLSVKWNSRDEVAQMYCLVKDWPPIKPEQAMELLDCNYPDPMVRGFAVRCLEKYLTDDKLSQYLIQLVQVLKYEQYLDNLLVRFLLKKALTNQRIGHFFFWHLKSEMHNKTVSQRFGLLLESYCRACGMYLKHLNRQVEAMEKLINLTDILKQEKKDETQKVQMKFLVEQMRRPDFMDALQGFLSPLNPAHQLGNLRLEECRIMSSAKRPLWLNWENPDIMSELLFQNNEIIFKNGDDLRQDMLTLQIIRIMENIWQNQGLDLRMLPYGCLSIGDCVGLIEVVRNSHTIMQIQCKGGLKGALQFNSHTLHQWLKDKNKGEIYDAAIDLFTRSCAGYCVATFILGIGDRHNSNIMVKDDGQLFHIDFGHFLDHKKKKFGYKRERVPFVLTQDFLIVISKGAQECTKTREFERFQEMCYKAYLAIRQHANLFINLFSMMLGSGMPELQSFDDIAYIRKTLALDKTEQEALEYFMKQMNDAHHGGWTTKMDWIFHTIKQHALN
Assay: Inhibition of PI3Kalpha (unknown origin) using PIP2 as substrate by Kinase-Glo assay
Class membership depends on IC50 alone; the intervals are lo = under 1 nM, med = from 1 nM up to 3 nM, hi = 3 nM and over

>  <Compound>
COc1ncc(-c2cc(OC3CCOCC3)c3nc(N)nc(C)c3c2)cc1NS(C)(=O)=O

>  <Category label>
med

$$$$
>  <Compound>
CNc1nc(C)c2cc(-c3cnc(OC)c(NS(=O)(=O)c4ccc(F)cc4F)c3)cc(O[C@@H]3CCOC3)c2n1

>  <Category label>
lo

$$$$
>  <Compound>
COc1ncc(-c2cc(OC3CCOCC3)c3nc(N)nc(C)c3c2)cc1NS(=O)(=O)c1ccc(F)cc1

>  <Category label>
med

$$$$
>  <Compound>
COc1ncc(-c2cc(OC3CCOCC3)c3nc(N)nc(C)c3c2)cc1NS(=O)(=O)C1CC1

>  <Category label>
med

$$$$
>  <Compound>
CNc1nc(C)c2cc(-c3cnc(OC)c(NS(=O)(=O)c4ccc(F)cc4F)c3)cc(OC3CCCC3)c2n1

>  <Category label>
hi

$$$$
>  <Compound>
COc1ncc(-c2cc(OCC3CCOCC3)c3nc(N)nc(C)c3c2)cc1NS(=O)(=O)c1ccc(F)cc1F

>  <Category label>
lo

$$$$
>  <Compound>
COc1ncc(-c2cc3c(C)nc(N)nc3n([C@H]3CC[C@H](OCCO)CC3)c2=O)cc1NS(=O)(=O)c1ccc(F)cc1F

>  <Category label>
lo

$$$$
>  <Compound>
CNc1nc(C)c2cc(-c3cnc(OC)c(NS(=O)(=O)c4ccc(F)cc4F)c3)cc(O[C@H]3CCOC3)c2n1

>  <Category label>
med

$$$$
>  <Compound>
CNc1nc(C)c2cc(-c3cnc(OC)c(NS(=O)(=O)c4ccc(F)cc4F)c3)cc(OC3CCOC(C)(C)C3)c2n1 (stereo not drawn)

>  <Category label>
med

$$$$
>  <Compound>
COc1ncc(-c2cc(OC(C)C)c3nc(N)nc(C)c3c2)cc1NS(=O)(=O)c1ccc(F)cc1F

>  <Category label>
lo

$$$$
>  <Compound>
COc1ncc(-c2cc(OC3CCN(C)CC3)c3nc(N)nc(C)c3c2)cc1NS(=O)(=O)c1ccc(F)cc1F

>  <Category label>
hi

$$$$
>  <Compound>
COc1ncc(-c2cc(OC3CCOCC3)c3nc(NCC4CC4)nc(C)c3c2)cc1NS(=O)(=O)c1ccc(F)cc1F

>  <Category label>
hi

$$$$
>  <Compound>
COc1ncc(-c2cc(OC3CCCCC3)c3nc(N)nc(C)c3c2)cc1NS(=O)(=O)c1ccc(F)cc1F

>  <Category label>
lo

$$$$
>  <Compound>
CNc1nc(C)c2cc(-c3cnc(OC)c(NS(=O)(=O)c4ccc(F)cc4F)c3)cc(OCC3CCOCC3)c2n1

>  <Category label>
med

$$$$
>  <Compound>
COc1ncc(-c2cc(O[C@H]3CCOC3)c3nc(N)nc(C)c3c2)cc1NS(=O)(=O)c1ccc(F)cc1F

>  <Category label>
lo

$$$$
>  <Compound>
COc1ccc(-c2cc(OC3CCOCC3)c3nc(N)nc(C)c3c2)cn1

>  <Category label>
hi

$$$$
>  <Compound>
CNc1nc(C)c2cc(-c3cnc(OC)c(NS(=O)(=O)c4ccc(F)cc4F)c3)cc(OC3CCC3)c2n1

>  <Category label>
hi

$$$$
>  <Compound>
CNc1nc(C)c2cc(-c3cnc(OC)c(NS(=O)(=O)c4ccc(F)cc4F)c3)cc(OCC3CCOC3)c2n1 (stereo not drawn)

>  <Category label>
med

$$$$
>  <Compound>
COc1ncc(-c2cc(OCC3CCOC3)c3nc(N)nc(C)c3c2)cc1NS(=O)(=O)c1ccc(F)cc1F (stereo not drawn)

>  <Category label>
med

$$$$
>  <Compound>
Cc1ncc(-c2cc(OC3CCOCC3)c3nc(N)nc(C)c3c2)cc1NS(=O)(=O)c1ccc(F)cc1F

>  <Category label>
med

$$$$
>  <Compound>
COc1ncc(-c2cc(OC3CCOCC3)c3nc(N(C)C)nc(C)c3c2)cc1NS(=O)(=O)c1ccc(F)cc1F

>  <Category label>
hi

$$$$
>  <Compound>
COc1ncc(-c2cc(OC3CCOCC3)c3nc(N)nc(C)c3c2)cc1NS(=O)(=O)c1ccc(Cl)s1

>  <Category label>
med

$$$$
>  <Compound>
Cc1nc(N)nc2c(OC3CCOCC3)cc(-c3cnc(Cl)c(NS(=O)(=O)c4ccc(F)cc4)c3)cc12

>  <Category label>
med

$$$$
>  <Compound>
COc1ncc(-c2cc(OC3CCOCC3)c3nc(NC(C)=O)nc(C)c3c2)cc1NS(=O)(=O)c1ccc(F)cc1F

>  <Category label>
med

$$$$
>  <Compound>
COc1ncc(-c2cc(OC3CCC(F)(F)CC3)c3nc(N)nc(C)c3c2)cc1NS(=O)(=O)c1ccc(F)cc1F

>  <Category label>
med

$$$$
>  <Compound>
COc1ncc(-c2cc(OCCN3CCOCC3)c3nc(N)nc(C)c3c2)cc1NS(=O)(=O)c1ccc(F)cc1F

>  <Category label>
hi

$$$$
>  <Compound>
COc1ncc(-c2cc(OC3CCC3)c3nc(N)nc(C)c3c2)cc1NS(=O)(=O)c1ccc(F)cc1F

>  <Category label>
lo

$$$$
>  <Compound>
COc1ncc(-c2cc(OC3CCOCC3)c3nc(N)nc(C)c3c2)cc1F

>  <Category label>
hi

$$$$
>  <Compound>
COc1ncc(-c2cc(OCC3CC3)c3nc(N)nc(C)c3c2)cc1NS(=O)(=O)c1ccc(F)cc1F

>  <Category label>
med

$$$$
>  <Compound>
CNc1nc(C)c2cc(-c3cnc(OC)c(NS(=O)(=O)c4ccc(F)cc4F)c3)cc(OC3CCOCC3)c2n1

>  <Category label>
med

$$$$
>  <Compound>
CNc1nc(C)c2cc(-c3cnc(OC)c(NS(=O)(=O)c4ccc(F)cc4F)c3)cc(OC3CCCCC3)c2n1

>  <Category label>
hi

$$$$
>  <Compound>
COc1ncc(-c2cc(OC3CCOCC3)c3nc(NC(C)=O)nc(C)c3c2)cc1NS(C)(=O)=O

>  <Category label>
hi

$$$$

---

Listing of entries alongside the reported AUC(0-inf).
Test: in vivo
Details: ICR, mouse, plasma, iv, 3 mg/kg

>  <Compound>
CNc1nc(C)c2cc(-c3cnc(OC)c(NS(=O)(=O)c4ccc(F)cc4F)c3)cc(OC3CCOCC3)c2n1

>  <AUC(0-inf), ng·h/mL>
3500

$$$$
>  <Compound>
COc1ncc(-c2cc(O[C@@H]3CCOC3)c3nc(N)nc(C)c3c2)cc1NS(=O)(=O)c1ccc(F)cc1F

>  <AUC(0-inf), ng·h/mL>
911

$$$$
>  <Compound>
CNc1nc(C)c2cc(-c3cnc(OC)c(NS(=O)(=O)c4ccc(F)cc4F)c3)cc(O[C@@H]3CCOC3)c2n1

>  <AUC(0-inf), ng·h/mL>
1460

$$$$

---

UniProtKB P05177: reported IC50 for various compounds.
Sequence (P05177 whole entry): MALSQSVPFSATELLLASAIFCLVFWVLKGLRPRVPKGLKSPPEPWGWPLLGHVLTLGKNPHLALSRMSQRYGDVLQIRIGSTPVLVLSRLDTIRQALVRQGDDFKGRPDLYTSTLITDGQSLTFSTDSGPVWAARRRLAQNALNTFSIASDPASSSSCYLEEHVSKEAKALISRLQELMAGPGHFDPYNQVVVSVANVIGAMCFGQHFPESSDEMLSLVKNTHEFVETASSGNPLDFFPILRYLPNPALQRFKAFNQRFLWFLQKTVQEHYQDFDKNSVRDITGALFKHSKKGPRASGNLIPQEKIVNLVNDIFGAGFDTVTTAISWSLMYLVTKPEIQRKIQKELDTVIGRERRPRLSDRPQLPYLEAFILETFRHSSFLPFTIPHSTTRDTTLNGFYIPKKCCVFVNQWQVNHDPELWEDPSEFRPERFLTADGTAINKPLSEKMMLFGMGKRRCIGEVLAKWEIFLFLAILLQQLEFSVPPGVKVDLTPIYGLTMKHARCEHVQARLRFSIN

>  <Compound>
CNc1nc(C)c2cc(-c3cnc(OC)c(NS(=O)(=O)c4ccc(F)cc4F)c3)cc(O[C@@H]3CCOC3)c2n1

>  <Assayed target>
UniProtKB P05177

>  <IC50>
> 10 µM

$$$$
>  <Compound>
COc1ncc(-c2cc(O[C@@H]3CCOC3)c3nc(N)nc(C)c3c2)cc1NS(=O)(=O)c1ccc(F)cc1F

>  <Assayed target>
UniProtKB P05177

>  <IC50>
> 10 µM

$$$$
>  <Compound>
CNc1nc(C)c2cc(-c3cnc(OC)c(NS(=O)(=O)c4ccc(F)cc4F)c3)cc(OC3CCOCC3)c2n1

>  <Assayed target>
UniProtKB P05177

>  <IC50>
> 10 µM

$$$$

---

pIC50: −log10 of the molar value.
Cytochrome P450 2E1 (Homo sapiens): reported pIC50 for various molecules.
Sequence (P05181 whole entry): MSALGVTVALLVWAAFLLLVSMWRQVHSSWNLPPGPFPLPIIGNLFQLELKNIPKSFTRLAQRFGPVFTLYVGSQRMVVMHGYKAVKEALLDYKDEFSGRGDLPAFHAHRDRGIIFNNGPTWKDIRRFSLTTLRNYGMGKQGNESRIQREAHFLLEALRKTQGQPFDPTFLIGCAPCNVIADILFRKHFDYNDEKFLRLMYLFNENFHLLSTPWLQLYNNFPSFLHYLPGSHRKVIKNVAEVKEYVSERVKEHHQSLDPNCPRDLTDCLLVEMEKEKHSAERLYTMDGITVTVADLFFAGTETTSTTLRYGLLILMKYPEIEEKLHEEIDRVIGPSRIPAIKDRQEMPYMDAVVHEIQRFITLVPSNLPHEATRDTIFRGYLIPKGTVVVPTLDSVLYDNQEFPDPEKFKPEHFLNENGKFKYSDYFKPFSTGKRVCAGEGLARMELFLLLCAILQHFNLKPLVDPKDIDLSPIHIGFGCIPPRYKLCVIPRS

>  <Compound>
CNc1nc(C)c2cc(-c3cnc(OC)c(NS(=O)(=O)c4ccc(F)cc4F)c3)cc(O[C@@H]3CCOC3)c2n1

>  <pIC50>
< 5.00

$$$$
>  <Compound>
CNc1nc(C)c2cc(-c3cnc(OC)c(NS(=O)(=O)c4ccc(F)cc4F)c3)cc(OC3CCOCC3)c2n1

>  <pIC50>
< 5.00

$$$$
>  <Compound>
COc1ncc(-c2cc(O[C@@H]3CCOC3)c3nc(N)nc(C)c3c2)cc1NS(=O)(=O)c1ccc(F)cc1F

>  <pIC50>
< 5.00

$$$$

---

Experiment: in vivo
Details: ICR, mouse, in vivo, po, 30 mg/kg
Readout name: AUC(0-t)

>  <Compound>
COc1ncc(-c2cc(OC3CCOCC3)c3nc(N)nc(C)c3c2)cc1NS(=O)(=O)c1ccc(F)cc1F

>  <Readout name>
AUC(0-t)

>  <Test value>
23900 ng·h/mL

$$$$
